ASSAY_SUMMARY: chemical genetic growth profiling, strain panel (AID 1159580);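 further: tested at 20 µM; growth read once vehicle control cultures reached saturation at 30 °C; 1 = growth at the plate median or of vehicle wells; lower values mean less growth of the strain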
TEST_CONTEXT: S. cerevisiae deletion strains, growth OD, locus YMR231W, strain pep5, active compounds read low
Out of some 5,500 compounds screened, about 2,000 (36%) were called active. About 18% were inconclusive and are not listed. The list shows a part of the results.
PROPERTY_MEASURED: normalized growth
Answer with a number only.

> print(dat)
                                   molecule  numeric.result
1            CC(=O)Nc1c(I)cc(I)c(C(=O)O)c1I           0.982
2  ClC1C(Cl)C(Cl)C(Cl)C(Cl)C1Cl (centres undefined)            1.01
3              CC(C)[C@@H]1CC[C@@H](C)CC1=O               1

Ask: # input molecule: C[N+]12CCC(CC1)C(OC(=O)C(O)(c1ccccc1)c1ccccc1)C2 (centres undefined) ; wanted: its normalized growth
Reply: 1
